Where do these numbers come from? They come from patent US20200048360A1.

Each entry below lists one item and its recorded kon value.
Target: T1, recombinant endoglin (UniProt P17813 26-586, limits assumed)
T1 sequence (looked up): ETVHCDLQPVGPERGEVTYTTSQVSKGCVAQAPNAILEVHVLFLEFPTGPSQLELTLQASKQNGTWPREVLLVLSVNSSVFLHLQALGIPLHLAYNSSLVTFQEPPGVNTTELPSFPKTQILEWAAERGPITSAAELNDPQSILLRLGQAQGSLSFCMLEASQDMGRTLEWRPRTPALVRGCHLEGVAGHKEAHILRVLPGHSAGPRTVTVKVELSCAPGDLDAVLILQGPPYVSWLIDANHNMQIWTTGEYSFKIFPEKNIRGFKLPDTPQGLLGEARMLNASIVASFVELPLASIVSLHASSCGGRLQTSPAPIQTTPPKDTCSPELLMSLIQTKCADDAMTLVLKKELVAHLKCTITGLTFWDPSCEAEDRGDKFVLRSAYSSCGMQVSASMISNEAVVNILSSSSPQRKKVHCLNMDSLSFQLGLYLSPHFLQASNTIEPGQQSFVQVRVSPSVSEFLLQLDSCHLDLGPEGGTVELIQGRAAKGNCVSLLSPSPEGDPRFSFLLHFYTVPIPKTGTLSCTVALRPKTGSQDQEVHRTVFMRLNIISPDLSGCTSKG
Test: BIAcore SPR, antibody captured on protein A chip, recombinant endoglin as analyte, 25 C
METRIC_NAME: kon (M⁻¹ s⁻¹)

| BINDER | UNIT_OF_MEASUREMENT | TEST_VALUE |
| --- | --- | --- |
| VK1AAVH1A2 (antibody, V domains shown, IgG1 heavy chain, kappa light chain; also called humanized/deimmunized anti-endoglin antibody VK1AAVH1A2) VH: EVQLVESGGGLVKPGGSLRLSCAASGFTFSDAWMDWVRQAPGKGLEWVGEARSKASNHATYYAESVKGRFTISRDDSKNTLYLQMNSLKTEDTAVYYCTRWRRFFDSWGQGTLVTVSS VL: DIQMTQSPSSLSASVGDRATITCRASSSVSYMHWYQQKPGKAPKPWAYATSNLASGVPSRFSGSGSGTDYTLTISSLQPEDFATYYCQQWSSNPLTFGGGTKVEIK | M⁻¹ s⁻¹ | 46000 |
| chimeric anti-CD105 antibody TRC105 (antibody, V domains shown, Chimeric monoclonal antibody with the murine SN6j variable regions; also called chimeric anti-endoglin antibody; c-SN6j) VH: EVKLEESGGGLVQPGGSMKLSCAASGFTFSDAWMDWVRQSPEKGLEWVAEIRSKASNHATYYAESVKGRFTISRDDSKSSVYLQMNSLRAEDTGIYYCTRWRRFFDSWGQGTTLTVSS VL: QIVLSQSPAILSASPGEKVTMTCRASSSVSYMHWYQQKPGSSPKPWIYATSNLASGVPVRFSGSGSGTSYSLTISRVEAEDAATYYCQQWSSNPLTFGAGTKLELK | M⁻¹ s⁻¹ | 54700 |
| VK1AAVH1R (antibody, V domains shown, IgG1 heavy chain, kappa light chain) VH: EVQLVESGGGLVKPGGSLRLSCAASGFTFSDAWMDWVRQAPGKGLEWVGEIRSRASNHATYYAESVKGRFTISRDDSKNTLYLQMNSLKTEDTAVYYCTRWRRFFDSWGQGTLVTVSS VL: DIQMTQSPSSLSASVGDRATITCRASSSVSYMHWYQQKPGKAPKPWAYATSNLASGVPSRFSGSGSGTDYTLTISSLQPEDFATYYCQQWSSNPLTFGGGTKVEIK | M⁻¹ s⁻¹ | 64000 |
| VK1AAVH1Q (antibody, V domains shown, IgG1 heavy chain, kappa light chain) VH: EVQLVESGGGLVKPGGSLRLSCAASGFTFSDAWMDWVRQAPGKGLEWVGEIRSQASNHATYYAESVKGRFTISRDDSKNTLYLQMNSLKTEDTAVYYCTRWRRFFDSWGQGTLVTVSS VL: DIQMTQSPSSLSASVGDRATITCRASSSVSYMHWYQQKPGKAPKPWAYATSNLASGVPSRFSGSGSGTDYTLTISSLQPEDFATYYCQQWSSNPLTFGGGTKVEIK | M⁻¹ s⁻¹ | 35600 |
